target: NMDAR2B expressing HEK cell membranes (Homo sapiens); construct: expressed in transfected cells; host or cells: HEK cells (membrane extract); assay: NMDAR agonist assay, [3H]MK-801 binding, NMDAR2B; assay type: biochemical; details: 50 μM glutamate; relative to 1 mM glycine
Sequence (Q13224 27-1484, other chains not shown): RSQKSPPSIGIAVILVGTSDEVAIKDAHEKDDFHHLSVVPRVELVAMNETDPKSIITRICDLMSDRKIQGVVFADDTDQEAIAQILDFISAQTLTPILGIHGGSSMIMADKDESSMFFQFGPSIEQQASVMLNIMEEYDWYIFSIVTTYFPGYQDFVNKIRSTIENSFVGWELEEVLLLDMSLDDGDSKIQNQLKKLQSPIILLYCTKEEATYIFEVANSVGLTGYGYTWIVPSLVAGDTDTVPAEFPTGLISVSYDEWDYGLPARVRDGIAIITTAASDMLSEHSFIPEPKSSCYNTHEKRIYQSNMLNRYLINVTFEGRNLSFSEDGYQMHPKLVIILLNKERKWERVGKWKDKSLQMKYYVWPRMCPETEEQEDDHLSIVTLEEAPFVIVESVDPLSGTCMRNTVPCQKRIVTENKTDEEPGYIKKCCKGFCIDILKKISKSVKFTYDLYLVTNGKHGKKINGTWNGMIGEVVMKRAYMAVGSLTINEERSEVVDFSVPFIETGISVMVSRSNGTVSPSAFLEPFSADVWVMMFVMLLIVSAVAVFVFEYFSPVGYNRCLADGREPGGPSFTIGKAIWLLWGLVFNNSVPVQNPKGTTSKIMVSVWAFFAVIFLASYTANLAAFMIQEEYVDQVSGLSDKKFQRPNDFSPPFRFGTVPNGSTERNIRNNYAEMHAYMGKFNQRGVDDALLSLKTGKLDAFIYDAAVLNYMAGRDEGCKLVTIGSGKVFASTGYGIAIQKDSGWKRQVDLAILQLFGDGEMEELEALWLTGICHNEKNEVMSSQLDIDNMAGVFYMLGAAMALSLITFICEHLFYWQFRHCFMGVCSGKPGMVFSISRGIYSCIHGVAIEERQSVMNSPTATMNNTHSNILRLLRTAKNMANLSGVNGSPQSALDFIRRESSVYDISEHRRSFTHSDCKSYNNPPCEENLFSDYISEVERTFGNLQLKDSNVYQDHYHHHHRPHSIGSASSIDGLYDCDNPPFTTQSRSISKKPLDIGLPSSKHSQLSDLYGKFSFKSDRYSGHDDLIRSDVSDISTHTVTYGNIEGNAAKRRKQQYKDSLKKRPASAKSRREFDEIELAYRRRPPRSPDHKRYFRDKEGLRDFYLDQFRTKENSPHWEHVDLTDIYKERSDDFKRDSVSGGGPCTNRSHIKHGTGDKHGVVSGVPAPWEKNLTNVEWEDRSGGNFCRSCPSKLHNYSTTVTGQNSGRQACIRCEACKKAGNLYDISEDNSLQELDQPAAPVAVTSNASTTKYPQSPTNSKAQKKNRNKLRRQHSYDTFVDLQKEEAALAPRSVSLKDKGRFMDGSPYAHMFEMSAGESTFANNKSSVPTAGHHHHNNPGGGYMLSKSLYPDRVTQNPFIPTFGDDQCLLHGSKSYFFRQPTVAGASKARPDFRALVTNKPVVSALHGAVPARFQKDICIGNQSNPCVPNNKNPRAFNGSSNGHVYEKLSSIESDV
attribute measured: NMDAR2B: % maximal [3H]MK-801 binding relative to 1 mM glycine

Answered examples (4):
C[C@@H](O)[C@H](NC1CN(C(=O)OC(C)(C)C)C2(CNC2=O)C1)C(N)=O (single isomer, unassigned) [CH]    − (−=0)
CC(C)(C)OC(=O)N1CC2(CN(OCc3ccccc3)C2=O)CC12CN(OCc1ccccc1)C2=O (single isomer, unassigned) [AX]    − (−=0)
CC(C)(C)OC(=O)N1C2(CCC13CNC3=O)CNC2=O (single isomer, unassigned) [AA-2]    − (−=0)
O=C1NCC12CN(Cc1ccccc1)C1(CNC1=O)C2 (single isomer, unassigned) [DO]    − (−=0)

Problem: Please tell me: NMDAR2B: % maximal [3H]MK-801 binding relative to 1 mM glycine of C[C@@H](O)[C@H](NCC1CCC2(CNC2=O)N1C(=O)OC(C)(C)C)C(=O)N(C)C (single isomer, unassigned) [BS] , system NMDAR2B expressing HEK cell membranes (Homo sapiens)?
Solution: + (<100%=+)

Problem: // query: CC(C)CN1C(C(=O)N[C@H](C(N)=O)[C@@H](C)O)CCC12CNC2=O (single isomer, unassigned) [BB]
Solution: + (<100%=+)

Problem: // query: CNC(=O)C(NCC1CCC2(CNC2=O)N1)C(C)O (single isomer, unassigned)
Solution: ++ (>100%=++)

Problem: // query: CC(C)(C)OC(=O)N1CC2(CN(OCc3ccccc3)C2=O)CC12CN(OCc1ccccc1)C2=O (single isomer, unassigned) [AW]
Solution: ++ (>100%=++)

Problem: // query: CC(C)(C)OC(=O)N1CC2(CN(OCc3ccccc3)C2=O)CC12CN(OCc1ccccc1)C2=O (single isomer, unassigned) [AV]
Solution: + (<100%=+)

Numbers sourced from patent US11028095B2.
